B1: KAT8 regulatory NSL complex subunit 2, residues 28 to 91; numbered along this chain, Q9H9L4 (parent)
chain: CAFTHRPCSHPRLEGQEFCIKHILEDKNAPFKQCSYISTKNGKRCPNAAPKPEKKDGVSFCAEH

variants of: B1; assay: abundance fitness (aPCA) (normalised: wild type 0, dead -1); higher = more abundant; growth selection in yeast, the domain comes from the species named; details: Homo sapiens
Provide the recorded abundance fitness for the entries that follow.

State the recorded abundance fitness for this entry: "S9R"
-0.186

Next variant up: "R12K"
-0.325

Next variant up: "A2H"
-0.231

Next variant up: "Q33P"
-0.036

Next variant up: "F18H"
-0.454

Next variant up: "K27V"
-0.104

Next variant up: "P11V"
-0.197

Next variant up: "P50C"
-0.1

Next variant up: "C61N"
-0.449

Next variant up: "S59L"
-0.037

Next variant up: "L24R"
-0.164

Next variant up: "Q16E"
-0.261
